experimental_system: T1, 14-3-3 theta (Homo sapiens)
T1 chain: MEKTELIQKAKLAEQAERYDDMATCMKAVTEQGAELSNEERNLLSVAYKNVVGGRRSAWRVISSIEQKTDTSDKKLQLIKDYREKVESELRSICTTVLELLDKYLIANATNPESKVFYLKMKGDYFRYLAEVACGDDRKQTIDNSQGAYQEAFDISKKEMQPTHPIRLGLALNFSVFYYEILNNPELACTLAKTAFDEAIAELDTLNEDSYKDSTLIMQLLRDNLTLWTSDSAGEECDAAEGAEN
procedure_details: MST
Where no end group is shown, it is not given here. [ ]: non-standard residue; d: D form. pS = N[C@@H](COP(=O)(O)O)C(=O)O
readout_label: pKd
Give bare numbers, as −log10 of the molar value.

- binder: "GRRSI[pS]FSVGA (also: phosphoserine at 103 (place in chain not given here)) [Sirt3^pS103 phospho-endecamer peptide]"
  number: 4.28
- binder: "KGRSV[pS]AADLS [Sirt7 pS136]"
  number: 4.52
- binder: "RSISF[pS]VGASS (also: phosphoserine at 105 (place in chain not given here)) [Sirt3^pS105 phospho-endecamer peptide]"
  number: 4.22

Now look at this entry.
# query: pKd of entry VLSSS[pS]CGSNS (also: phosphoserine at 670 (place in chain not given here)) [Sirt1^pS670 phospho-endecamer peptide]
4.03
